test system: A549-ACTB-RAB5A; experiment: phenotypically active (imaging signature differs from DMSO and reproducible) at any of 0.3-9 uM (binary (1 = active, 0 = inactive)); higher = active; details: treatment time: 24 h
In this exercise, the only acceptable responses are YES (active), NO (inactive)

These solved cases illustrate the format of a correct answer.
compound=Cc1cc(-c2ccc(/C=C3\S/C(=N\c4ccc(Cl)c(C(=O)O)c4)NC3=O)o2)c([N+](=O)[O-])cc1C tested_on=A549-ACTB-RAB5A group=NO
compound="NS(=O)(=O)c1cc2c(cc1C(F)(F)F)NC(Cc1ccccc1)NS2(=O)=O (configuration not stated) [bendroflumethiazide]" tested_on=A549-ACTB-RAB5A group=NO
compound=C=C(C)[C@@H]1CC[C@]2(CO)CC[C@]3(C)[C@H](CC[C@@H]4[C@@]5(C)CC[C@H](O)C(C)(C)[C@@H]5CC[C@]43C)[C@@H]12 tested_on=A549-ACTB-RAB5A group=NO
compound=CCC1=C[C@@H]2CN(C1)Cc1c([nH]c3ccccc13)[C@@](C(=O)OC)(c1cc3c(cc1OC)N(C)[C@H]1[C@@](O)(C(=O)OC)[C@H](OC(C)=O)[C@]4(CC)C=CCN5CC[C@]31[C@@H]54)C2 tested_on=A549-ACTB-RAB5A group=YES
compound="O=C1NC(=O)[C@@H](c2cn3c4c(cccc24)CCC3)[C@@H]1c1c[nH]c2ccccc12 [tivantinib]" tested_on=A549-ACTB-RAB5A group=YES

stdin: Per the assay record, what outcome was assigned to CC(C(=O)Nc1cccc(/N=C/c2c(O)ccc3ccccc23)c1)c1ccccc1 (configuration not stated) [Salermide] ?
stdout: NO

stdin: Per the assay record, what outcome was assigned to CC1=Nc2ccc(Cl)cc2S(=O)(=O)N1 [diazoxide] ?
stdout: NO

stdin: Per the assay record, what outcome was assigned to `O=C1N[C@@H]2[C@@H](O)[C@@H](O)[C@H](O)[C@@H](CO)N2C1=O` ?
stdout: NO

stdin: Per the assay record, what outcome was assigned to O=C1CC(c2ccc(O)cc2)Oc2cc(O)cc(O)c21 (configuration not stated) ?
stdout: NO

stdin: Per the assay record, what outcome was assigned to `O=C(O)c1ccc(N2N=C(Cc3ccccc3)/C(=C/c3ccc(-c4ccccc4F)o3)C2=O)cc1` ?
stdout: NO
